We begin with a simple list: items and their reported IC50.
Target: FLT3-ITD (Homo sapiens, UniProt P36888, DUP595-601)
Sequence (P36888 with tags, fused parts or gaps DUP595-601 limits assumed): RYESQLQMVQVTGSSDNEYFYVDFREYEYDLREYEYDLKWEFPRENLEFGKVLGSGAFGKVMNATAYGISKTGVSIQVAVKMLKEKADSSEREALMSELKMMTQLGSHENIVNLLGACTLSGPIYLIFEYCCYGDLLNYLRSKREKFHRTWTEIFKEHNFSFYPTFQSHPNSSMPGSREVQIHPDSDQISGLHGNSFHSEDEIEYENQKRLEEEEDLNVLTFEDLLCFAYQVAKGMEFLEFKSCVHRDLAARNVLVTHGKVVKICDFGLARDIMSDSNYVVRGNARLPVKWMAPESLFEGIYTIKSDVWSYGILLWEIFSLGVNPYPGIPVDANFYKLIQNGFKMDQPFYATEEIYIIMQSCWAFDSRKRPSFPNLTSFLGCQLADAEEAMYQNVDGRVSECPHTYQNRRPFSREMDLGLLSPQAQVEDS
Test: FLT3-ITD Lance Ultra TR-FRET kinase assay
reported_metric: IC50

INSERT INTO assay_data (compound, reported_metric, value_reported) VALUES
  ('CCc1nc(C(N)=O)c(Nc2cccc(CCNC(=O)[C@H](C)N(C)C(=O)/C=C/CN(C)C)c2)nc1C1CC1 [Compound 138]', 'IC50', '0.201 to 0.5 nM'),
  ('CCc1nc(C(N)=O)c(Nc2cc(F)cc(CCNC(=O)[C@H](C)N(C)C(=O)/C=C/CN(C)C)c2)nc1N(C)C [Compound 158]', 'IC50', '0.101 to 0.2 nM'),
  ('CCc1nc(Nc2cccc([C@H](C)CNC(=O)CN(C)C(=O)/C=C/CN3CCC3)c2)c(C(N)=O)nc1CC [Compound 519]', 'IC50', '> 1 nM'),
  ('C=CC(=O)Nc1cccc(Nc2nc(N3CCC[C@H](NC(=O)c4ccc(C5CC5)cc4)[C@@H]3C)cnc2C(N)=O)c1 [Compound C-1, reference compound]', 'IC50', '> 1 nM'),
  ('Cc1nc(C(N)=O)c(Nc2cccc(CCNC(=O)CN(C)C(=O)/C=C/CN(C)C)c2)nc1C1CC1 [Compound 241]', 'IC50', '0.201 to 0.5 nM'),
  ('CCc1nc(C(N)=O)c(Nc2cccc(CCNC(=O)CN(C)C(=O)/C=C/CN3CCC3)c2)nc1CC(C)C [Compound 601]', 'IC50', '0.501 to 1 nM');
